# System: SN12C renal
# assay name: NCI tumour cell line growth inhibition, 48 h
observed property: TGI

INSERT INTO measurements (compound, data_value) VALUES
  ('CO[C@H]1C[C@H](O[C@H]2CC[C@]3(C=O)[C@H]4CC[C@]5(C)[C@@H](C6=CC(=O)OC6)CC[C@]5(O)[C@@H]4CC[C@]3(O)C2)O[C@H](C)[C@H]1O[C@@H]1O[C@H](CO[C@@H]2O[C@H](CO)[C@@H](O)[C@H](O)[C@H]2O)[C@@H](O)[C@H](O)[C@H]1O', '0.11 µM'),
  ('CCOC(=O)c1nc2ccc(C(F)(F)F)cc2nc1Nc1ccc(OC)c(OC)c1', '> 100 µM'),
  ('CN(C)C1COC2Cc3ccccc3C1O2 (stereo unspecified)', '> 100 µM'),
  ('Clc1ccc(N=Cc2cc3cc(Br)ccc3nc2Cl)cc1', '> 50 µM'),
  ('COc1ccc2c(c1)CC[C@@H]1[C@@H]2CC[C@]2(C)c3c(cc(C(=O)c4ccccc4)c4sccc34)C[C@@H]12', '> 100 µM'),
  ('Cc1ccc(S(=O)(=O)NC(=O)Nc2nc(Cl)cc(Cl)n2)cc1', '> 100 µM'),
  ('NC(CCCNCc1ccccc1O)C(=O)O (stereo unspecified)', '> 100 µM'),
  ('COc1ccc(-n2nnnc2C2(Nc3ccccc3)CCN(Cc3ccccc3)CC2)cc1', '28 µM'),
  ('Nc1nc(Cl)cc(NCC2(CO)CCC(OCc3ccccc3)C2)n1 (stereo unspecified)', '93 µM'),
  ('O=C1C=Cc2c(I)sc(I)c21', '45.7 µM'),
  ('CC1=C(C(=O)Nc2ccc(Cl)c(Cl)c2)C(c2cccc(O)c2)NC(=S)N1 (stereo unspecified)', '20.1 µM');

----------
# System: PC-3 prostate
# assay name: NCI tumour cell line growth inhibition, 48 h
Here, each record is paired with measured TGI data.
observed property: TGI (µM)

INSERT INTO measurements (compound, unit_abbreviation, relation_qualifier, data_value) VALUES
  ('O=CNc1ccc2c(c1)Cc1cc([N+](=O)[O-])ccc1-2', 'µM', '>', 100),
  ('Cn1c(=O)c2c(nc3sc4ncccc4c(=O)n32)n(C)c1=O', 'µM', '>', 100),
  ('O=C1C=CC(=O)N1CCCCCCCCCCN1C(=O)C=CC1=O', 'µM', '=', 36.5),
  ('COc1ccc(C2Oc3c(cccc3OC)C=C2[N+](=O)[O-])cc1 (stereo unspecified)', 'µM', '=', 5.16),
  ('O=C(Nc1cc(Cl)cc(Cl)c1)c1ccc(NC2=C(Cl)C(=O)N(Cc3ccccc3)C2=O)cc1', 'µM', '=', 12.7),
  ('O=C(CN1C(=O)c2ccccc2C1=O)OCC1CCCN2CCCCC12 (stereo unspecified)', 'µM', '>', 100),
  ('Cc1cccc2c(=O)c3c(sc12)c(NCCN)nc1ccccc13', 'µM', '=', 1.49),
  ('CC1=C(C(=O)Nc2ccc(Cl)c(Cl)c2)C(c2cccc(O)c2)NC(=S)N1 (stereo unspecified)', 'µM', '=', 31.4),
  ('Cc1c(C)c2ccc(O)cc2[nH]c1=O', 'µM', '>', 100),
  ('CCN1CCN(Cc2ccc3cc(C(=O)Nc4cc(NC(=O)c5ccc6c(c5)OCCO6)ccc4F)ccc3n2)CC1', 'µM', '=', 11.6),
  ('O=C(O)CCCC#CCCCC(=O)O', 'µM', '>', 100);

----------
# System: SK-MEL-5 melanoma
# assay name: NCI tumour cell line growth inhibition, 48 h
Quick reference: TGI of the listed items.
observed property: TGI

INSERT INTO measurements (compound, observed_property, data_value) VALUES
  ('O=c1[nH]c(C2CCCCC2)nc2cc(Cl)ccc12', 'TGI', '> 100 µM'),
  ('O=C(CCc1cc(-c2ccco2)n(-c2ccc([N+](=O)[O-])cc2[N+](=O)[O-])n1)Nc1ccccc1', 'TGI', '> 100 µM'),
  ('COc1cc(C2c3cc4c(cc3OC(O)C2C)OCO4)cc(OC)c1O (stereo not drawn)', 'TGI', '> 51.6 µM'),
  ('CSc1ccc2c(c1)C(=O)c1c-2n(CCCN=[N+]=[N-])c(=O)c2cc([N+](=O)[O-])ccc12', 'TGI', '16.4 µM'),
  ('CC(C)(C)C1CCN(C(=O)c2ccccc2)CC1', 'TGI', '> 100 µM'),
  ('O=C(O)CCCC#CCCCC(=O)O', 'TGI', '> 100 µM'),
  ('CC1OC2OC3C(OCC(O)C3O)OC(=O)[C@]34CCC(C)(C)CC3C3=CCC5[C@@]6(C)C[C@H](O)[C@H](OC7OC(CO)C(O)C(O)C7OC7OC(COC(=O)CC(C)(O)CC(=O)OC1C(O)C2O)C(O)C(O)C7O)[C@@](C)(CO)C6CC[C@@]5(C)[C@]3(C)CC4 (stereo partly drawn)', 'TGI', '2.34 µM'),
  ('COC(=O)/C(Br)=C/c1c[nH]c2ccc(Br)cc12', 'TGI', '24.6 µM');

----------
# Test system: OVCAR-4 ovarian
# assay name: NCI tumour cell line growth inhibition, 48 h
Where a SMILES comes first, the peptide text is derived from it. Bridges are numbered along the chain shown (N, C = ends). Roman numbers before positions name the chains, in order. [ ]: non-standard residue; d: D form. The star is where a group is joined. Heptadecanoyl = CCCCCCCCCCCCCCCCC(=O)*; Phg = N[CH](C(=O)O)c1ccccc1
Readings of TGI for the listed compounds
observed property: TGI

INSERT INTO results (compound, data_value) VALUES
  ('C#CCOc1c(OC)cc(C(=O)/C(C)=C/c2cccc(N=[N+]=[N-])c2)cc1OC', '> 100 µM'),
  ('CC(=O)O[C@H]1C(=O)[C@@]2(C)[C@H]([C@H](OC(=O)c3ccncc3)[C@]3(O)C[C@H](OC(=O)[C@H](O)[C@@H](NC(=O)c4ccccc4)c4ccccc4)C(C)=C1C3(C)C)[C@]1(OC(C)=O)CO[C@@H]1C[C@@H]2O', '> 25 µM'),
  ('O=C(Nc1cccc(-n2cc(-c3ccncc3)c(-c3ccc(O)c(Cl)c3)n2)c1)Nc1ccc(Cl)c(C(F)(F)F)c1', '9.97 µM'),
  ('O=C(Nc1ccc(F)cc1)c1cc2ccc(O)cc2oc1=Nc1cccc(F)c1', '> 100 µM'),
  ('O=CNc1ccc2c(c1)Cc1cc([N+](=O)[O-])ccc1-2', '> 100 µM'),
  ('C(=N/Nc1ccccn1)/c1cccnc1', '> 100 µM'),
  ('N=c1c2ccccc2nc2oc3ccc(Cl)cc3n12', '13.1 µM'),
  ('COC(=O)/C(Br)=C/c1c[nH]c2ccc(Br)cc12', '56.8 µM'),
  ('COC(=O)/C(Cl)=C1/CC1COCc1ccccc1 (configuration not stated)', '84.2 µM'),
  ('Clc1ccc(-c2cc(-c3nc4ccccc4[nH]3)no2)cc1', '51.4 µM'),
  ('CCNCCNc1cc(C2CCCC2)c(C#N)c2nc3ccccc3n12', '13 µM'),
  ('Nc1nc(Cl)nc2c1ncn2C1CCC(CO)O1 (configuration not stated)', '> 100 µM'),
  ('CC[C@]12C=CCN3CCC4(c5cc(N=Nc6ccc([N+](=O)[O-])cc6)c(OC)cc5N(C)[C@H]4[C@@](O)(C(=O)OC)[C@@H]1OC(C)=O)[C@@H]32 (some centres not stated)', '> 100 µM'),
  ('N=C1N=Nc2nc(C3(c4nc5n(c4O)C(=N)N=N5)Cc4ccccc4C3=O)c(O)n21 (configuration not stated)', '> 100 µM'),
  ('CCCCCCCCCCCCCCCCC(=O)N1CCCC1C(=O)NCC(=O)NC(C(=O)N1CCCC1C(=O)NC(CO)C(=O)NC(Cc1ccc(O)cc1)C(=O)NC(CCCCNC(=O)C1CCCN1C(=O)C(CCCCN)NC(=O)C(CCCCN)NC(=O)C(CCCCN)NC(=O)C(CCCNC(=N)N)NC(=O)C(CCCCN)NC(=O)C(N)C(C)C)C(=O)NC(CC(C)C)C(=O)NC(CCCNC(=N)N)C(=O)N1CCCC1C(=O)NCC(N)=O)c1ccccc1 (configuration not stated) (I: Heptadecanoyl-PG[Phg]PSYKLRPG-NH2 / II: H-VKRKKKP; amide I:7-II:C; configuration not given here)', '> 100 µM'),
  ('O=S(=O)(c1ccccc1)C1CN(Cc2ccccc2)CCN(Cc2ccccc2)C1', '> 72.6 µM'),
  ('Cc1cc(Cl)ccc1Nc1nc(C(F)(F)F)ccc1C(=O)N/N=C/c1c(Cl)cccc1Cl', '> 100 µM'),
  ('Cc1ccc2nc(Cl)c(/C=N/N3C(=O)/C(=C/Cc4ccco4)N=C3c3ccccc3)cc2c1', '> 100 µM'),
  ('Clc1ccc(CCn2cncn2)c(Cl)c1', '> 100 µM'),
  ('CCOC(=O)C1C(=O)CC(C)(O)C(C(=O)OCC)C1c1ccc(OC)cc1 (configuration not stated)', '> 100 µM'),
  ('N#Cc1ccccc1/C=N/O', '> 100 µM'),
  ('COC(=O)c1cc(O)ccc1NC(=O)c1ccc(O)cc1', '> 100 µM'),
  ('CCC(CCCCC1CC[C@H]2CC(=O)C[C@@H]12)OC (some centres not stated)', '> 100 µM'),
  ('CC1CC(=O)NC2CC1C2(C)C (configuration not stated)', '> 100 µM'),
  ('O=C(CN1CCCC1)Nc1ccc2sc3ccccc3c(=O)c2n1', '> 100 µM'),
  ('C/C(=C\c1ccc2c(c1)OCO2)[N+](=O)[O-]', '14 µM'),
  ('CC(C)(C)OC(=O)N1C(=O)OC[C@@H]2C=C[C@@H]21', '> 100 µM'),
  ('N.N.N.N.O=S(=O)([O-])[O-].[Co+3].[OH3+].[OH3+]', '> 100 µM'),
  ('Cn1cc(C2=C(c3cccc(NCC(O)CO)c3)C(=O)NC2=O)c2cc(Cl)ccc21 (configuration not stated)', '11.6 µM'),
  ('C=C1CCC2C(C)(CO)C(O)CCC2(C)C1CC(O)C1=CCOC1=O (configuration not stated)', '> 100 µM'),
  ('COc1ccc(-n2nnnc2C2(Nc3ccccc3)CCN(Cc3ccccc3)CC2)cc1', '> 100 µM'),
  ('O=C1C(c2c(O)[nH]c3ccc(S(=O)(=O)N(CCO)CCO)cc23)=Nc2ccccc21', '> 100 µM'),
  ('CC(C)=CCC/C(C)=C/CC/C(C)=C/CC/C(C=O)=C/CC/C(C)=C\CC/C(C)=C/CC/C(C)=C/CC/C(C)=C/CC1=CC(=O)C=CC1=O', '> 100 µM'),
  ('CNC(=S)N/N=C(/C)CCC/C(C)=N/NC(=S)NC', '29.2 µM'),
  ('O=C(O)C1CCCN1Cc1ccc2c(c1)OCO2 (configuration not stated)', '> 100 µM'),
  ('COc1ccc(OC)c(/C=C/c2cnnc3ccccc23)c1', '> 10 µM'),
  ('O=C(/C=C/c1ccc2c(c1)OCO2)c1ccccc(=O)c1O', '> 100 µM');
